target: E. coli Topo IV (Escherichia coli, UniProt P0AFI2+P20083); assay: E. coli Topo IV relaxation assay; type: biochemical; conditions: tested 0.1, 1, 10, 100 µM
Sequence (P0AFI2 whole entry): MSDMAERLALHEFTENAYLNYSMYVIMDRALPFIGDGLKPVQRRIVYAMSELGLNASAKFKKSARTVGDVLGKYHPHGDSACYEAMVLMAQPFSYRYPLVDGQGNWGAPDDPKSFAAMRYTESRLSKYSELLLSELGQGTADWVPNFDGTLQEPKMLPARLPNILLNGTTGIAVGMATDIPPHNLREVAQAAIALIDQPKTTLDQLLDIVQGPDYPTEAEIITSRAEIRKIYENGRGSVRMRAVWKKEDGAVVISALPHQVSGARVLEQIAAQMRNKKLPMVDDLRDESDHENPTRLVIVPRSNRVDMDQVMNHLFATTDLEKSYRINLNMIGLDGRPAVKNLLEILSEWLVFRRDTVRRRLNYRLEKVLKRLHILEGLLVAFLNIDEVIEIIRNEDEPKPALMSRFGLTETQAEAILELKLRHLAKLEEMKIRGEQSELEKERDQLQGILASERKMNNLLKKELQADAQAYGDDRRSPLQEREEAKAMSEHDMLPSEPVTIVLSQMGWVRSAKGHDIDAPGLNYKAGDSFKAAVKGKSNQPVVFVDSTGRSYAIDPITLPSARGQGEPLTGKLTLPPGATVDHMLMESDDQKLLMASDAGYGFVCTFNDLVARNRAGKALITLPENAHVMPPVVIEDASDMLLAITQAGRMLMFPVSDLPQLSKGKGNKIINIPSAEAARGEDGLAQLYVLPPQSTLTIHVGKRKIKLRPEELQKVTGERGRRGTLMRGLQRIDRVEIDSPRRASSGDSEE
Sequence (P20083 whole entry): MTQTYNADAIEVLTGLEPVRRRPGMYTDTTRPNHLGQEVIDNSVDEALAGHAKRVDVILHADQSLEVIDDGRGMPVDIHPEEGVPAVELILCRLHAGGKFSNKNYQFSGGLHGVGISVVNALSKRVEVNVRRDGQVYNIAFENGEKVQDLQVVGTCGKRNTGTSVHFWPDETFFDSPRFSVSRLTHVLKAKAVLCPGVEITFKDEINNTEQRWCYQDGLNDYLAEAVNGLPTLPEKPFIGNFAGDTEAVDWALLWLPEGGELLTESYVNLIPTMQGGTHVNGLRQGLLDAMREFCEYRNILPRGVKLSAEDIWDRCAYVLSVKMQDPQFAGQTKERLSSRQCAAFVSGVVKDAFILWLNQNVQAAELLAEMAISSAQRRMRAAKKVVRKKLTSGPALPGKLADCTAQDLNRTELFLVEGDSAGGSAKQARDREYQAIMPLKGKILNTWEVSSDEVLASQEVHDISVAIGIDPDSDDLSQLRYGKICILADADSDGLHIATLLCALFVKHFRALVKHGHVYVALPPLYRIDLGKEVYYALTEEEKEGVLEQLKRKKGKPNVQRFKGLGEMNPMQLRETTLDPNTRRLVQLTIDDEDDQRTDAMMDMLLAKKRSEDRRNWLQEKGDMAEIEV
Here, each record is paired with measured concentration required for full inhibition of Topo IV relaxation activity data.
Only the number, expressed in µM, is required.

Examples from the recorded data:
COc1c(NC(=O)c2ccc(NC(=O)c3ccc(NC(=O)[C@H](Cc4c[nH]nn4)NC(=O)c4ccc(NC(=O)c5ccc6nc(C)ccc6c5)cc4)cn3)c(OC)c2O)ccc(C(=O)O)c1O [Albi-3]	10
CC(C)Oc1c(NC(=O)c2ccc(NC(=O)[C@H](Cc3c[nH]nn3)NC(=O)c3ccc(NC(=O)c4ccc(C#N)cc4)cn3)cn2)ccc(C(=O)Nc2ccc(C(=O)O)cc2)c1O [Albi-1]	10
COc1c(NC(=O)c2ccc(NC(=O)c3ccc(NC(=O)[C@H](CC#N)NC(=O)c4ccc(NC(=O)/C(C)=C/c5ccc(O)cc5)cc4)cc3)c(OC)c2O)ccc(C(=O)O)c1O [Albicidin]	100

response.value for COc1c(NC(=O)c2ccc(NC(=O)c3ccc(NC(=O)[C@H](Cc4c[nH]nn4)NC(=O)c4ccc(NC(=O)c5ccc6cc(O)ccc6c5)cc4)cn3)c(OCCN)c2O)ccc(C(=O)O)c1O [Albi-2] (field: concentration required for full inhibition of Topo IV relaxation activity) = 100

====

target: E. coli gyrase GyrA^V70A (Escherichia coli, UniProt P0AES4+P0AES6, V70A); construct: alternative cryo-EM approach involving full-length E. coli gyrase; 10-His (cleaved yes); Twin-Strep (cleaved yes); made in house; assay: DNA gyrase cleavage assay (CC50, % cleaved DNA); format: biochemical; settings: GyrA^V70A; cell prints its own unit
assay_metric: pEC50
Keep it numeric: pEC50 is minus log10 of the concentration in mol/L.

response.value for COc1c(NC(=O)c2ccc(NC(=O)c3ccc(NC(=O)[C@H](CC#N)NC(=O)c4ccc(NC(=O)/C(C)=C/c5ccc(O)cc5)cc4)cc3)c(OC)c2O)ccc(C(=O)O)c1O (field: pEC50) = 5.91

====

target: E. coli gyrase GyrA^V70A (Escherichia coli, UniProt P0AES4+P0AES6, V70A); construct: alternative cryo-EM approach involving full-length E. coli gyrase; 10-His (cleaved yes); Twin-Strep (cleaved yes); made in house; experiment: DNA gyrase cleavage assay (CC50, % cleaved DNA); type: biochemical; conditions: GyrA^V70A; mean ± s.d. of triplicate
Here, each record is paired with measured EC50 data.
Only the number, expressed in nM, is required.

CC(C)Oc1c(NC(=O)c2ccc(NC(=O)[C@H](Cc3c[nH]nn3)NC(=O)c3ccc(NC(=O)c4ccc(C#N)cc4)cn3)cn2)ccc(C(=O)Nc2ccc(C(=O)O)cc2)c1O	16
COc1c(NC(=O)c2ccc(NC(=O)c3ccc(NC(=O)[C@H](Cc4c[nH]nn4)NC(=O)c4ccc(NC(=O)c5ccc6nc(C)ccc6c5)cc4)cn3)c(OC)c2O)ccc(C(=O)O)c1O	36

Now take the following molecule into account.
response.value for COc1c(NC(=O)c2ccc(NC(=O)c3ccc(NC(=O)[C@H](Cc4c[nH]nn4)NC(=O)c4ccc(NC(=O)c5ccc6cc(O)ccc6c5)cc4)cn3)c(OCCN)c2O)ccc(C(=O)O)c1O (field: EC50) = 189

====

tested on: B. subtilis DSM10; assay: MIC determination (microdilution, M07-A9); format: cell-based; conditions: Bacillus subtilis, second value in cell (biological replicate)
Here, each record is paired with measured MIC data.
Only the number, expressed in µg/mL, is required.

COc1c(NC(=O)c2ccc(NC(=O)c3ccc(NC(=O)[C@H](Cc4c[nH]nn4)NC(=O)c4ccc(C#Cc5ccc(C#N)cc5)cc4)cn3)c(OC)c2O)ccc(C(=O)O)c1O	0.125
COc1c(NC(=O)c2ccc(NC(=O)c3ccc(NC(=O)[C@H](Cc4c[nH]nn4)NC(=O)c4ccc(NC(=O)c5ccc6nc(C)ccc6c5)cc4)cn3)c(OC)c2O)ccc(C(=O)O)c1O	0.125

Now take the following compound into account.
response.value for COc1c(NC(=O)c2ccc(NC(=O)c3ccc(NC(=O)[C@H](CC#N)NC(=O)c4ccc(NC(=O)/C(C)=C/c5ccc(O)cc5)cc4)cc3)c(OC)c2O)ccc(C(=O)O)c1O (field: MIC) = 0.25
